# credit: patent US20100292083A1

- system name: T1, human IL6R (human, UniProt P08887 20-358, limits assumed)
- T1 construct: Antigen of the Biacore experiments
- T1 sequence (looked up): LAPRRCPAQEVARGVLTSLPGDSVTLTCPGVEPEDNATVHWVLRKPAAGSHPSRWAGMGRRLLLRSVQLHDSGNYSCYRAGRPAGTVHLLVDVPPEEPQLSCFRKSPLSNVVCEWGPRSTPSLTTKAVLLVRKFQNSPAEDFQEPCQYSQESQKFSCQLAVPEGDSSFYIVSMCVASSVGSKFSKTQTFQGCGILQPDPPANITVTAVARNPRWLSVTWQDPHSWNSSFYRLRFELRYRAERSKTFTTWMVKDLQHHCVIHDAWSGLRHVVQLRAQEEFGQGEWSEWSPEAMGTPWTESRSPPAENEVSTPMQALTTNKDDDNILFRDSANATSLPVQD
- assay details: SPR (Biacore), purified Nanobody
observable: pKd
Would you please state pKd, meaning minus log10 of the concentration in mol/L, as a bare number?

IL6R65PMP7G8 (VHH, Also expressed in E. coli and purified via IMAC) VHH: EVQLVESGGGLVQPGGSLRLSCAASGSTFRINVMAWYRQAPGKGRELVAGVINDGSTTYADSVKGRFTISRDNAKNTLYLQMNSLRPEDTAVYYCAFVTTNSDYDLGRDYWGQGTLVTVSS | 9.02
IL6R65PMP7C4 (VHH, Also expressed in E. coli and purified via IMAC) VHH: EVQLVESGGGLVQPGGSLRLSCAASGTTFRINVMAWYRQAPGKGRELVAGIITNGSTSYADSVKGRFTISRDNAKNTLYLQMNSLRPEDTAVYYCAFVTTNSDYDLGRDYWGQGTLVTVSS | 9.47
IL6R65PMP7D6 (VHH, Also expressed in E. coli and purified via IMAC) VHH: EVQLVESGGGLVQPGGSLRLSCAASGSIFRVNVMAWYRQAPGKGRELVAAVINGGTTTYADSVKGRFTISRDNAKNTLYLQMNSLRPEDTAVYYCAFVTTNSDYDLGRDYWGQGTLVTVSS | 9.38
IL6R65PMP7G7 (VHH, Also expressed in E. coli and purified via IMAC) VHH: EVQLVESGGGLVQPGGSLRLSCAASGTTFKINIMAWYRQAPGKGRELVAGVITGGNTTYADSVKGRFTISRDNAKNTLYLQMNSLRPEDTAVYYCAFVTTNSDYDLGRDYWGQGTLVTVSS | 9.25
IL6R65PMP7F4 (VHH, Also expressed in E. coli and purified via IMAC) VHH: EVQLVESGGGLVQPGGSLRLSCAASGTTFKVNVMAWYRQAPGKGRELVAGIINGGSTTYADSVKGRFTISRDNAKNTLYLQMNSLRPEDTAVYYCAFVTTNSDYDLGRDYWGQGTLVTVSS | 9.32

Value lookup for pKd; key = Nanobody IL6R65 (VHH, also called ILR65) VHH: EVQLVESGGGLVQPGGSLRLSCAASGSIFKVNAMGWYRQAPGKGRELVAGIISGGSTNYADSVKGRFTISRDNAKNTLYLQMNSLRPEDTAVYYCAFVTTNSDYDLGRDYWGQGTLVTVSS
8.37
